B1: Keratin, type I cytoskeletal 40 (Homo sapiens), Q6A162 (parent)
chain: MTSDCSSTHCSPESCGTASGCAPASSCSVETACLPGTCATSRCQTPSFLSRSRGLTGCLLPCYFTGSCNSPCLVGNCAWCEDGVFTSNEKETMQFLNDRLASYLEKVRSLEETNAELESRIQEQCEQDIPMVCPDYQRYFNTIEDLQQKILCTKAENSRLAVQLDNCKLATDDFKSKYESELSLRQLLEADISSLHGILEELTLCKSDLEAHVESLKEDLLCLKKNHEEEVNLLREQLGDRLSVELDTAPTLDLNRVLDEMRCQCETVLANNRREAEEWLAVQTEELNQQQLSSAEQLQGCQMEILELKRTASALEIELQAQQSLTESLECTVAETEAQYSSQLAQIQCLIDNLENQLAEIRCDLERQNQEYQVLLDVKARLEGEINTYWGLLDSEDSRLSCSPCSTTCTSSNTCEPCSAYVICTVENCCL

Variants of: B1
Condition Description: with k2c4_human KRT4, P19013
Sequence (P19013 whole entry): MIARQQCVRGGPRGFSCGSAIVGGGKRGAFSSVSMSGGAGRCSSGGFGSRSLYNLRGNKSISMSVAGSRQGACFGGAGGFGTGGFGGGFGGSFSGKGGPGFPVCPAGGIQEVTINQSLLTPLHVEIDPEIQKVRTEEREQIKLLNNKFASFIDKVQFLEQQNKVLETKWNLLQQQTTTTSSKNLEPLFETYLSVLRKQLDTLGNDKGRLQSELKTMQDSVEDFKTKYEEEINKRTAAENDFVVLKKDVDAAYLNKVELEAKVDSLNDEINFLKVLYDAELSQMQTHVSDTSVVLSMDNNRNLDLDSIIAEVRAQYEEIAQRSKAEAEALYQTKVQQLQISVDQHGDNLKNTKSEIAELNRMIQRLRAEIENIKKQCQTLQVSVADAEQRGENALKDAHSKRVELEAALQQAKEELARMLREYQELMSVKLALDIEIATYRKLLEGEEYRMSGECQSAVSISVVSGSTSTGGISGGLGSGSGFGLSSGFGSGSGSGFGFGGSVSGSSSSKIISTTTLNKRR
Measurement Label: effect of a mutation on the interaction

[[record]]
variant_annotation = "R235H"
measurement_label = "effect of a mutation on the interaction"
value_measured = "with no effect"

[[record]]
variant_annotation = "T388M"
measurement_label = "effect of a mutation on the interaction"
value_measured = "with no effect"

[[record]]
variant_annotation = "F85S"
measurement_label = "effect of a mutation on the interaction"
value_measured = "with no effect"

[[record]]
variant_annotation = "E286D"
measurement_label = "effect of a mutation on the interaction"
value_measured = "with no effect"

[[record]]
variant_annotation = "C349R"
measurement_label = "effect of a mutation on the interaction"
value_measured = "with no effect"


stdin: Given the entry M303T , report its measured effect of a mutation on the interaction.
stdout: with no effect

stdin: Looking for the measured effect of a mutation on the interaction of W390R , can you help?
stdout: with no effect

stdin: Bench note: what effect of a mutation on the interaction did A115T show?
stdout: with no effect

stdin: Returns the measured effect of a mutation on the interaction for the input variant. Input: C265Y
stdout: with no effect

stdin: Need effect of a mutation on the interaction of T37A , thanks.
stdout: with no effect

stdin: Give the measured effect of a mutation on the interaction of T153M .
stdout: with no effect

stdin: What effect of a mutation on the interaction value was documented for this variant, S406L ?
stdout: with no effect

stdin: Quick one: effect of a mutation on the interaction for S102N ?
stdout: with no effect
